B1: Neutrophil cytosol factor 2, residues 456 to 514; numbered along this chain, P19878 (parent)
chain: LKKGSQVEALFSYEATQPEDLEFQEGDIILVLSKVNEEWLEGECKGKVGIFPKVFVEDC

variants of: B1; experiment: abundance fitness (aPCA) (normalised: wild type 0, dead -1); higher = more abundant; growth selection in yeast, the domain comes from the species named; details: Homo sapiens
parameter_measured: abundance fitness
Answer with a number only.

I29P = 0.271
A15P = -0.005
G46W = -0.346

`E8Q` has a reported abundance fitness of 0.472

`Q17G` has a reported abundance fitness of 0.478
